Test: self-splicing fitness, log relative to wild type (ln ratio); higher = more splicing; Tetrahymena group I intron in knt gene, E. coli kanamycin selection, DiMSum; sequences stand for … in CUCUCU…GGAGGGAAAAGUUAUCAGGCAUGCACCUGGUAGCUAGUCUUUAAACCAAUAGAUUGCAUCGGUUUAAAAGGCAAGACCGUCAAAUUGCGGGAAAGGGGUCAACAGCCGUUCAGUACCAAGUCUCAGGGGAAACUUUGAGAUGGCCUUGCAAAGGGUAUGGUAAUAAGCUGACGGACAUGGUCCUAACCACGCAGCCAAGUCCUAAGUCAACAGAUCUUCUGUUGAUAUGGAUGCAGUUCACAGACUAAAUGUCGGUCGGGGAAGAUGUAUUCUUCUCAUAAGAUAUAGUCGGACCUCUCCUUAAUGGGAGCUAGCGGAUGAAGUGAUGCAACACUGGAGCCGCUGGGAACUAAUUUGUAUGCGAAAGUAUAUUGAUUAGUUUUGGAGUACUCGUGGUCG;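 note: selection with 25 µg/mL kanamycin versus none on LB agar overnight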
Settings: 37 °C
Would you mind telling me the reported self-splicing fitness (ln) of each entry?
Answers are plain numbers.

Here are 4 sequences together with their reported answers.
{"columns": ["sequence record", "self-splicing fitness (ln)"],
 "data": [
  ["GUUUAGCAAUAUUACGCGGA", -1.82],
  ["GGGUAGCAAUAUUACGCCAG", -2.81],
  ["CAUCAGCAAUAUUACGUUAA", -1.85],
  ["ACUUAGCAAUAUUACGAUGU", -1.36]
]}

Provide self-splicing fitness (ln) values for the following items, in order.
1. UCGAAGCAAUAUUACGGGCC
2. AUUCAGCAAUAUUACGUAUA
3. GUUUAGCAAUAUUACGGGCG
4. AGCUAGCAAUAUUACGGGAU
5. AACAAGCAAUAUUACGUUGA
6. CUUAAGCAAUAUUACGCAAG

1: -0.79; 2: -0.805; 3: -1.38; 4: -1.49; 5: -1.95; 6: -2.58

Provide self-splicing fitness (ln) values for the following items, in order.
1. CCUUAGCAAUAUUACGAGGC
2. GGUGAGCAAUAUUACGCACA

-1.6
-0.679

Provide self-splicing fitness (ln) values for the following items, in order.
1. CAUAAGCAAUAUUACGCUCC
2. CUCAAGCAAUAUUACGCUAC
3. GAAUAGCAAUAUUACGCUCU
4. UAAGAGCAAUAUUACGAGAG

-0.216
-2.23
-1.4
-1.95

----------
Assay: self-splicing fitness, log relative to wild type (ln ratio); higher = more splicing; Tetrahymena group I intron in knt gene, E. coli kanamycin selection, DiMSum; sequences stand for … in CUCUCU…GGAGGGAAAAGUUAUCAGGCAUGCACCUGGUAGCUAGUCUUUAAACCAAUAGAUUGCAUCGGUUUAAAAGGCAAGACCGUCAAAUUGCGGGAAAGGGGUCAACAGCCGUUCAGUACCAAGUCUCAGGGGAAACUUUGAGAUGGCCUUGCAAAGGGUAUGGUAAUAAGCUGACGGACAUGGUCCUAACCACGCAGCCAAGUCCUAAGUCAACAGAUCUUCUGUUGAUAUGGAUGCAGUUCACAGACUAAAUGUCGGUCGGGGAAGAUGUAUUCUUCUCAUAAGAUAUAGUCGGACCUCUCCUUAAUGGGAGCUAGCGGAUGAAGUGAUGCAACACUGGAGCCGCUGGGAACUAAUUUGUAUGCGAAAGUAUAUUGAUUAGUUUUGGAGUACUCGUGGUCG
Details: 30 °C
Would you mind telling me the reported self-splicing fitness (ln) of each entry?
Numbers only.

{"columns": ["sequence record", "self-splicing fitness (ln)"],
 "data": [
  ["GUCCAGCAAUAUUACGGGUU", -1.58]
]}

Provide self-splicing fitness (ln) values for the following items, in order.
1. GUAUAGCAAUAUUACGAGUG
2. CGCAAGCAAUAUUACGACUC
3. GUUUAGCAAUAUUACGCACU
4. UAGAAGCAAUAUUACGAGCA
5. UCGUAGCAAUAUUACGUUCU
6. ACAAAGCAAUAUUACGGCUG

1. -2.23
2. -1.3
3. -1.41
4. -1.27
5. -1.6
6. -0.524

Please report the recorded self-splicing fitness (ln) for AGGUAGCAAUAUUACGCUCA .
-0.609
